system.tested: Calmodulin-1 (Homo sapiens)
measurement.description: calcium-bound CALM1 binders on microarrays, profiling panel, artefact control for SMM control-protein annotation, biochemical, small-molecule microarray, Cy5-labelled CALM1, plus calcium (AID 1112);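 also: score merges spot fluorescence with signal to noise from triplicate slides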
cond: Cy5-CALM1 binding fluorescence, higher = more signal

{"compound": "C=CCC(OC(C)=O)[C@@H]1[C@@H](N(Cc2ccc(-c3ccccc3)cc2)C(=O)c2cccc3ccccc23)c2cc(OCCCO)ccc2N1C(=O)Cc1ccc2ccccc2c1 (some centres undefined)", "system.tested": "Calmodulin-1 (Homo sapiens)", "composite z-score": 0.842}
{"compound": "COc1c(C)cc(-c2cc3c(c(-c4ccccc4)n2)[Si](C(C)C)(C(C)C)OC3)cc1C", "system.tested": "Calmodulin-1 (Homo sapiens)", "composite z-score": -0.119}
{"compound": "CCOC(=O)C[C@H]1[C@H](OC(=O)c2ccc(-c3ccccc3)cc2)[C@@H](NC(=O)c2ccc3ccccc3c2)c2cc(OCCCO)ccc2N1C(=O)c1ccc2ccccc2n1", "system.tested": "Calmodulin-1 (Homo sapiens)", "composite z-score": 0.593}
{"compound": "C[C@]1(C(=O)NCCN2CCOCC2)c2ccccc2C(=O)N(Cc2ccc(OC(F)(F)F)cc2)[C@H]1c1ccc(CO)cc1", "system.tested": "Calmodulin-1 (Homo sapiens)", "composite z-score": -0.0325}
